Test: Osmolality determination (FISKE osmometer)
Type: physicochemical
Details: solutions containing 28% iodine; methylglucamine salts; extrapolation from successive dilutions
Measured Osmolality values are reported for all entries that follow.
Enter your answer as a number in mosm/kg; do not include the unit.

Answered examples (2):
COMPOUND | EXPERIMENTAL_VALUE
CNC(=O)c1c(I)c(NC(=O)CNC(=O)c2c(I)c(NC(=O)CNC(=O)c3c(I)c(NC(C)=O)c(I)c(C(=O)NC)c3I)c(I)c(N(C)C(C)=O)c2I)c(I)c(C(=O)O)c1I [Compound 16] | 250
CNC(=O)c1c(I)c(C(=O)NCCCCCC(=O)Nc2c(I)cc(I)c(C(=O)O)c2I)c(I)c(N(C)C(C)=O)c1I [Compound 10] | 420

Here's the next entry for you.
Entry under review: CNC(=O)c1c(I)c(NC(=O)CNC(=O)c2c(I)c(NC(=O)CNC(=O)c3c(I)c(C(=O)NC)c(I)c(N(C)C(C)=O)c3I)c(I)c(N(C)C(C)=O)c2I)c(I)c(C(=O)O)c1I [Compound 17] . Reported Osmolality? 200
